study.system: C-CBL (46-435) (Homo sapiens, UniProt P22681)
Construct: N-terminal biotinylated WT CBL-B (36-427) and C-CBL (46-435) were captured on a streptavidin (SA) coated sensor chip
assay.method.text: Surface Plasmon Resonance (SPR) assay, binding affinity and kinetics, C-CBL
applied.conditions: SPR at 10° C., biotinylated C-CBL (46-435) on streptavidin chip; geometric mean; read-out: C-CBL SPR Kd (nM) GMean
measured.property: Kd (nM)
Give bare numbers, in nM.

Examples with answers:
compound	study.system	Kd [nM]
C[C@@H](c1nc(C(F)(F)F)cc2c(-c3cccc(C4(Cc5nncn5C)COC4)c3)n[nH]c12)N1CC[C@@H](F)C1 (single isomer, unassigned)	C-CBL (46-435) (Homo sapiens, UniProt P22681)	96
C[C@H](NC1CCCC1)c1nc(C(F)(F)F)cc2c(-c3cccc([C@H](c4nncn4C)C4CCC4)c3)n[nH]c12 (single isomer, unassigned)	C-CBL (46-435) (Homo sapiens, UniProt P22681)	189

Query block: GET /values?readout=Kd&item= C[C@@H](N[C@H]1C[C@@H](O)C1)c1nc(C(F)(F)F)cc2c(-c3cccc([C@H](c4nncn4C)C4CCC4)c3)n[nH]c12 (single isomer, unassigned)
Result block: 75.5

----------
Kindly supply the reported Ki values for the records listed here.
study.system: CBL-B (residues 36-427) (Homo sapiens)
Construct: Purified CBL-B (residues 36-427) and C-CBL (residues 46-435) proteins from baculovirus-infected insect cells; made in house; host or cells: baculovirus-infected insect cells
assay.method.text: Ligand Displacement Assay (LDA), HTRF competitive binding against BODIPY-labeled fluorescent tracer, CBL-B
applied.conditions: geometric mean of the number of tests, read-out: CBL-B Ki (nM) GMean
One number for each entry, in nM.

Hi, could you look up Ki for each item in my list?
1. CC(NC[C@H](C)O)c1nc(C(F)(F)F)cc2c(-c3cccc([C@H](c4nncn4C)C4CCCCC4)c3)n[nH]c12 (single isomer, unassigned) [Example C99]
2. C[C@H](N[C@H]1COC[C@H]1O)c1nc(C(F)(F)F)cc2c(-c3cccc([C@H](c4nncn4C)C4CCC4)c3)n[nH]c12 (single isomer, unassigned) [Example D61]
3. CC(NC[C@H](C)O)c1nc(C(F)(F)F)cc2c(-c3cccc([C@H](c4nncn4C)C4CCCCC4)c3)n[nH]c12 (single isomer, unassigned) [Example C100]
4. C[C@H](c1nc(C(F)(F)F)cc2c(-c3cccc(C4(Cc5nncn5C)COC4)c3)n[nH]c12)N1CCC(F)(F)C1 (single isomer, unassigned)
5. Cn1cnnc1CC1(c2cccc(-c3n[nH]c4c(CN5C[C@@H](F)[C@H](F)C5)nc(C(F)(F)F)cc34)c2)COC1

Result block:
3.1
22
2.8
4.6
20

Query block: Consider the molecule C[C@H](O)CN[C@H](C)c1nc(C(F)(F)F)cc2c(-c3cccc([C@H](c4nncn4C)C4CCC4)c3)n[nH]c12 (single isomer, unassigned) and give its measured Ki.
Result block: 1

----------
Assignment: determine reported Ki for the given molecules.
study.system: C-CBL (residues 46-435) (Homo sapiens, UniProt P22681)
Construct: Purified CBL-B (residues 36-427) and C-CBL (residues 46-435) proteins from baculovirus-infected insect cells; made in house; host or cells: baculovirus-infected insect cells
assay.method.text: Ligand Displacement Assay (LDA), HTRF competitive binding against BODIPY-labeled fluorescent tracer, C-CBL
applied.conditions: geometric mean of the number of tests, read-out: C-CBL Ki (nM) GMean
Reply with the number and its unit after it.

Some molecules with known Ki results, for comparison:
molecule	Ki
C[C@H](NC1CC(F)(F)C1)c1nc(C(F)(F)F)cc2c(-c3cccc([C@H](c4nncn4C)C4CCC4)c3)n[nH]c12 (single isomer, unassigned) [Example D90]	147 nM
CC[C@H](c1cccc(-c2n[nH]c3c([C@H](C)NC[C@H](C)O)nc(C(F)(F)F)cc23)c1)c1nncn1C (single isomer, unassigned) [Example D76]	2.9 nM
Cn1cnnc1[C@@H](c1cccc(-c2n[nH]c3c(C4CCCN4)nc(C(F)(F)F)cc23)c1)C1CCC1 (single isomer, unassigned) [Example L4]	178 nM

For each of the molecules below, note its Ki.
1. C[C@@H](c1nc(C(F)(F)F)cc2c(-c3cccc([C@H](c4nncn4C)C4CCC4)c3)n[nH]c12)N1CC[C@H]1CO (single isomer, unassigned) [Example D64]
2. CC(N[C@H](C)[C@H](C)O)c1nc(C(F)(F)F)cc2c(-c3cccc([C@H](c4nncn4C)C4CCC4)c3)n[nH]c12 (single isomer, unassigned) [Example C116]

Result block:
["58 nM", "204 nM"]

Values were extracted from patent US20260125375A1.
